Tested on: tetA promoter (PtetA)-lacZ reporter in E. coli KM3
Type: cell-based
STUDY CONDITIONS: Table 4; chlorsulfuron 20 μg/ml (20 ppm); 48 hrs at 30° C.
Measured relative β-galactosidase activity, inducer Cs, listed per entry.
No unit in the answer, only the number.

Returns the measured relative β-galactosidase activity, inducer Cs for the input molecule. Input: L1-29: library L1 hit, sulfonylurea-responsive TetR(B) variant, SEQ ID NO: 10 (protein, Sulfonylurea responsive repressor L1-29) MGSRLDKSKVINSALELLNEVGIEGLTTRKLAQKLGVEQPTLYWHVKNKRALLDALAIEMMDRHQTHFCPLEGESWQDFLRNTAKSMRCALLSHRDGAKVWLGTRWTEKQYETPENMLAFLCQQGFSLENALYAWSAVCNFTLGCVLSDQERQVAKEERETPTTDSMPPLLRQAWELSDHQGAEPAFLFGLELIICGLEKQLKCESGS 15.8

Proceed to the following item.
For L1-20: library L1 hit, sulfonylurea-responsive TetR(B) variant, SEQ ID NO: 6 (protein, Sulfonylurea responsive repressor L1-20) MGSRLDKSKVINSALELLNEVGIEGLTTRKLAQKLGVEQPTLYWHVKNKRALLDALAIEMMDRHQTHFCPLEGESWQDFLRNNAKSMRCALLSHRDGAKVFLGTAWTEKQYETVENLLAFLCQQGFSLENALYALNAVATFTLGCVLWDQEKQVAKEERETPTTDSMPPLLRQAHELGDHQGAEPAFLFGLELIICGLEKQLKSESGS , what is its reported relative β-galactosidase activity, inducer Cs? 22.0
